B1: TRAF3IP2 (parent)
chain: APWNYHYHCPGSPDHQVPYGHDYP

Variants of: B1
assayMethodText: protein stability index of a GFP-peptide fusion (GPS, HEK-293T) (PSI 1-6); higher = more stable;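 also: lentivirally expressed fusions sorted by FACS into six bins by GFP to DsRed ratio, PSI derived from sequencing read proportions per bin multiplied by bin number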
measurementParameters: c terminus: a fixed tail appended
Bucketed by reported protein stability index, buckets being low range: < 2; mid range: ≥ 2 and < 3; high range: ≥ 3

Illustrative cases are given below, each with its answer.
# sequenceText, assignedLabel
rows = [
    ("APWNYHYHCPGSPDHQVPYGHDYT [P24T]", "mid range"),
    ("APWNYHYHCPGSPDGQVPYGHDYP [H15G]", "mid range"),
    ("APWNYHYHCPGSPDHQNPYGHDYP [V17N]", "mid range"),
]

Q: Hello team, could you let me know which band the following variant falls into: APWNYHYHIPGSPDHQVPYGHDYP [C9I]
Result: low range

Q: Hello team, could you let me know which band the following variant falls into: APWNYHYHCPGSPDHQVPYGHDYE [P24E]
Result: high range

Q: Hello team, could you let me know which band the following variant falls into: APWNYHYHCPGSPDPQVPYGHDYP [H15P]
Result: mid range

Q: Hello team, could you let me know which band the following variant falls into: APWNYHYHCPGSPQHQVPYGHDYP [D14Q]
Result: mid range

Q: Hello team, could you let me know which band the following variant falls into: APWNYHYHCPGSKDHQVPYGHDYP [P13K]
Result: low range

Q: Hello team, could you let me know which band the following variant falls into: APANYHYHCPGSPDHQVPYGHDYP [W3A]
Result: high range

Q: Hello team, could you let me know which band the following variant falls into: APWMYHYHCPGSPDHQVPYGHDYP [N4M]
Result: mid range

Q: Hello team, could you let me know which band the following variant falls into: APWNYHYHCPGSPDHQVPYGHDYA [P24A]
Result: mid range

Q: Hello team, could you let me know which band the following variant falls into: APWNYHYHCPGSPDHQVPYGKDYP [H21K]
Result: mid range

Q: Hello team, could you let me know which band the following variant falls into: APWNYHYHCPWSPDHQVPYGHDYP [G11W]
Result: mid range

Q: Hello team, could you let me know which band the following variant falls into: APWNYHYHCPGSPNHQVPYGHDYP [D14N]
Result: mid range

Q: Hello team, could you let me know which band the following variant falls into: APWNYHYHCPGSPDHQVKYGHDYP [P18K]
Result: high range

Q: Hello team, could you let me know which band the following variant falls into: APWNYHYHCPGSPDHQVPHGHDYP [Y19H]
Result: mid range

Q: Hello team, could you let me know which band the following variant falls into: APWNYHYHCLGSPDHQVPYGHDYP [P10L]
Result: low range

Q: Hello team, could you let me know which band the following variant falls into: ASWNYHYHCPGSPDHQVPYGHDYP [P2S]
Result: mid range
